Test system: Fer (mouse);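 also: frequency after pTyr selection over input frequency; kinase dosed for 20-30% of maximal phosphorylation in three min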
Assay method text: phosphorylation enrichment, bacterial display (enrichment ratio); higher = better substrate or ligand; peptides without Tyr show the background
Recorded endpoint: phosphorylation enrichment
Kindly provide the number alone.

                    sequence_record           recorded_endpoint  numeric_result
0             QQTYTYDSGIH [JUP_Y22]  phosphorylation enrichment           0.454
1          HFPFQYHRQLF [F12_Y53_YF]  phosphorylation enrichment           0.538
2  VIKDKYPKVRF [APTX_Y209_A212V_YF]  phosphorylation enrichment           0.448
3          IIRRLYLKWHP [SACS_Y4333]  phosphorylation enrichment           0.453
4   SMAKYYASGIA [ACADSB_Y373_E376G]  phosphorylation enrichment           0.444

## Task Given the entry THLARYSDELR [APOA1_Y190_P189R] , what phosphorylation enrichment was observed with Fer (mouse)?
## Result 0.616

## Task Form field: phosphorylation enrichment recorded for VPLATYMQIYK [RPL21_Y30_R32Q] with Fer (mouse) (enter value)
## Result 0.315

## Task Which measured phosphorylation enrichment belongs to SWSTSYSGYRC [NKAPL_Y91_Y96C] , tested on Fer (mouse)?;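 also: 11-residue human phosphosite peptides and single-mutation variants displayed on the E. coli surface, counted by deep sequencing, each peptide's frequency after selection divided by its frequency in the unselected input library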;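 also: frequency after pTyr selection over input frequency; kinase dosed for 20-30% of maximal phosphorylation in three min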
## Result 0.532

## Task Tell me reported phosphorylation enrichment for EWQQIYTYDSG [JUP_Y20_T19I] , tested with Fer (mouse).
## Result 4.55
